assayTarget: KRAS G12C (Homo sapiens, UniProt P01116, G12C)
Sequence (P01116 1-188 isoform P01116-2 G12C): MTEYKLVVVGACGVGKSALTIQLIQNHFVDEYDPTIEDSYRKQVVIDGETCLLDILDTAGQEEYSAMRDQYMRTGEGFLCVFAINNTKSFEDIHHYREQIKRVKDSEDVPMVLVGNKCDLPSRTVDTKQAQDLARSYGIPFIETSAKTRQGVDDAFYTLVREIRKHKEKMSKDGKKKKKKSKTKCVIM
measurementProtocol: GDP-GTP exchange assay (KRAS_G12C exchange assay)
conditionContext: bodipy-loaded KRAS G12C 2.5 nM, SOS1 150 nM, 2 hours pre-incubation with inhibitor; read-out: G12C_exchange
# IC50 annotations

>  <compound>
C=C(F)C(=O)N1CC[C@H](n2nnc3c(N4CC(C)(N(C)CC)C4)nc4c(F)c(-c5c(C)c(F)cc6[nH]ncc56)c(Cl)cc4c32)C[C@H]1CC#N (single isomer, unassigned) [Example 35a]

>  <IC50>
≤ 50 nM

$$$$
>  <compound>
C=C(F)C(=O)N1CC[C@H](n2cnc3c(O[C@@H](C)[C@@H]4CCCN4C)nc4c(F)c(-c5cccc(C)c5Cl)c(C)cc4c32)C[C@H]1CC#N

>  <IC50>
≤ 50 nM

$$$$
>  <compound>
COC/C=C/C(=O)N1CC[C@H](n2nnc3c(N4CC(C)(N(C)C)C4)nc4c(Cl)c(-c5ccc(F)c6cccnc56)c(Cl)cc4c32)C[C@H]1CC#N (single isomer, unassigned) [Example 18b]

>  <IC50>
≤ 50 nM

$$$$
>  <compound>
C=C(F)C(=O)N1CC[C@H](n2nnc3c(N4CC(C)(N(C)CC)C4)nc4c(F)c(-c5c(C)c(C)cc6[nH]ncc56)c(Cl)cc4c32)C[C@H]1CC#N (single isomer, unassigned) [Example 33b]

>  <IC50>
100 to 1000 nM

$$$$

Hey, just so you know, these numbers are from patent US12441727B2.
